run-description: Competitive ELISA with free DM4
Format: binding
conditions: read-out: Estimated binding affinity IC50 to free DM4
property: IC50 (nM)
Response body: numeric value in nM, unit text excluded.

Worked cases, IC50 given:
{"columns": ["molecule", "value-units", "IC50"],
 "data": [
  ["DMFH1 (protein, DMFH1) VHH: QVQLQESGGGLVQPGGSLRLSCAASGSIFGISYMGWYRQAPGKQREPVAMITSGGSTYYADSVKGRVTISRDNAKKTVYLQMNSLRPEDASTYYCAAGCYRSDSPNRYDYWGQGTQVTVSS", "nM", 11],
  ["DMFF2 (protein, DMFF2) VHH: QVQLQESGGGLVQPGGSLRLSCAASGSIFGISYMGWYRQAPGKQREPVALITSGGSTYYVDSVKGRVTISRDNAKKTVYLQMNSLRPEDTSTYYCAAGYYRSDSPNRYDYWGQGTQVTVSS", "nM", 57],
  ["DMOF8 (protein, DMOF8) VHH: QVQLQESGGGLVQPGGSLRLSCAASGSIFGISYMGWYRQAPGKQREPVAMITSSGSTYYADSVRGRVTISRANAKKTVYLQMNSLRPEDTSTYYCAAGYYRSDSPNRYDYWGQGTQVTVSS", "nM", 26],
  ["DMOH9: affinity matured Anti-DM1/DM4 sdAb, SEQ ID NO:32 (protein, DMOH9) VHH: QVQLQESGGGLVQPGGSLRLSCAASGSIFGITYMGWYRQAPGKQREPVAMITSGGSTYYADSVKGRVTISRDNAKKTVYLQMNSLRPEDTSTYYCAAGYYRSDSPNRYDYWGQGTQVTVSS", "nM", 20]
]}

# input for lookup
Problem: Indicate the recorded IC50 value for this molecule: DMFH2 (protein, DMFH2) VHH: QVQLQESGGGLVQPGGSLRLSCAASGSTFGISYMGWYRQAPGKQREPVAMITSGGSTYYVDSVKGRVTISRDNAKKTVYLQMNSLRPEDTSTYYCAAGFYRSDSPNRYDYWGQGTQVTVSS
Result: 25
